Molecular target: Quinolone resistance protein NorA (Staphylococcus aureus) (UniProt P0A0J7)
Sequence (whole entry): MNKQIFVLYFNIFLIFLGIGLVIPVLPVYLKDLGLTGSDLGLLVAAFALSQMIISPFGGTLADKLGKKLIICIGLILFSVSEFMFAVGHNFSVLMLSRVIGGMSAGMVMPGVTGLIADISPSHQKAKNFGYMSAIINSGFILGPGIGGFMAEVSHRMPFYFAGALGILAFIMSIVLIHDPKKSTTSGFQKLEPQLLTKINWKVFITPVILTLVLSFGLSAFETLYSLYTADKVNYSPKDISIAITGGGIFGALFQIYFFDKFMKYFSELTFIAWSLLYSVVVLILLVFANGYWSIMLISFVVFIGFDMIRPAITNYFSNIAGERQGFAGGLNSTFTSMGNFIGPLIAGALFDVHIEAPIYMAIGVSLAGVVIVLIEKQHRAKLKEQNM
Test: Inhibition of NorA in Staphylococcus aureus 1199B harboring grlA A116E mutant assessed as inhibition of ethidium bromide efflux at 50 uM measured for 5 mins by fluorometric analysis relative to control
measurement_kind: inhibition (%)
I only need the number, in %, no unit after it.

Recorded inhibition of CCCOc1ccc(-c2cc(OCCN3CCc4cc(OC)c(OC)cc4C3)c3ccccc3n2)cc1 , please.
79.6

Recorded inhibition of CCCOc1ccc(-c2cc(OCC(C)N(C)C)c3ccccc3n2)cc1.Cl (stereo not given) , please.
90.4

Recorded inhibition of CCCOc1ccc(-c2cc(OCCCN(C)C)c3ccccc3n2)cc1.Cl , please.
90.6

Recorded inhibition of CCCOc1ccc(-c2cc(OCCN3CCC(=O)CC3)c3ccccc3n2)cc1 , please.
71.7

Recorded inhibition of CCCOc1ccc(-c2cc(OC(C)CN(C)C)c3ccccc3n2)cc1 (racemic) , please.
86.2
